Study Target: MIF (Homo sapiens)
Experiment Summary: MIF tautomerase assay using pHPP as substrate
Format: biochemical
Conditions: inhibition of the MIF enzyme in vitro; mean of multiple test results; read-out: Tautomerase Inhibition pIC50 (converted)
Form field: IC50 (one value per entry).

Molecule | IC50
Cc1cc(C#N)ccc1-n1cnc2c(N)nc(N3CCN(c4ccc(O)cc4)CC3)nc21 | > 10000 nM
Oc1ccc(C2(O)CCN(c3nc(N4CCCCC4)c4ncn(-c5ccncc5)c4n3)CC2)cc1 | 1000 to 9770 nM
O=C(O)Cn1cnc2c(-n3ncc4ccccc43)nc(N3CC(O)(c4ccc(O)cc4)C3)nc21 | 10 to 97.7 nM

Now turn to the next molecule.
Task: Need IC50 of CC(C(=O)O)n1cnc2c(-n3ncc4ccccc43)nc(N3CCN(c4ccc(O)cn4)CC3)nc21 (stereo not shown) , thanks.
Output: 10 to 97.7 nM

---

Form field: IC50 (one value per entry).
Study Target: MIF (Homo sapiens, UniProt P14174)
Experiment Summary: MIF tautomerase assay using pHPP as substrate
Type: biochemical
Conditions: inhibition of the MIF enzyme in vitro; mean of multiple test results; read-out: Tautomerase Inhibition pIC50 (converted)

# count of solved cases: 3
Mol | Study Target | IC50
OCCCn1cnc2c(N3CCc4ccccc43)nc(N3CCN(c4ccc(O)cc4)CC3)nc21 | MIF (Homo sapiens, UniProt P14174) | 1000 to 9770 nM
O=C1CN(c2nc(N3CCN(c4ccc(O)cc4)CC3)nc3c2ncn3-c2ccncc2)CCN1 | MIF (Homo sapiens, UniProt P14174) | 10 to 97.7 nM
O=C(O)CCCCn1cnc2c(-n3ncc4ccccc43)nc(N3CCN(c4ccc(O)cn4)CC3)nc21 | MIF (Homo sapiens, UniProt P14174) | 10 to 97.7 nM

Now turn to the next compound.
Task: Need IC50 of `Oc1ccc(N2CCN(c3nc(-n4ncc5ccccc54)c4ncn(-c5cccnc5)c4n3)CC2)cc1` , thanks.
Output: 100 to 977 nM

---

Study Target: MIF (Homo sapiens, UniProt P14174)
Sequence (P14174 2-115 limits assumed): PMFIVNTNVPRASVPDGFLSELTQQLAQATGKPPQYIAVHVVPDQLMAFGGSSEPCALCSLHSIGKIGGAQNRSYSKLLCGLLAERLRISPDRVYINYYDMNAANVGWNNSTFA
Experiment Summary: MIF tautomerase assay using pHPP as substrate
Assay type: biochemical
Conditions: inhibition of the MIF enzyme in vitro; mean of multiple test results; read-out: Tautomerase Inhibition pIC50 (converted)
Readout Label: IC50

# count of solved cases: 5
Compound | Measurement
O=C(O)Cn1cnc2c(N3Cc4ccccc4C3=O)nc(N3CCN(c4ccc(O)cc4)CC3)nc21 [Example 119] | 100 to 977 nM
O=C(O)Cn1cnc2c(-c3cccc4[nH]ncc34)nc(N3CCN(c4ccc(O)cc4)CC3)nc21 [Example 34] | 1000 to 9770 nM
O=C(O)Cn1cnc2c(-n3c(CO)nc4ccccc43)nc(N3CCN(c4ccc(O)cc4)CC3)nc21 [Example 29] | > 10000 nM
OCCn1cnc2c(N[C@@H]3CCc4ccccc43)nc(N3CCN(c4ccc(O)cc4)CC3)nc21 [Example 6] | > 10000 nM
Cc1cncc(-n2cnc3c(C)nc(N4CCN(c5ccc(O)cc5)CC4)nc32)c1 [Example 38] | 1000 to 9770 nM

Task: Hello, I am looking for reported IC50 with MIF (Homo sapiens, UniProt P14174) for Nc1nc(N2CCN(c3ccc(O)cc3)CC2)nc2c1ncn2-c1cncnc1 [Example 81] . Could you help?
Output: 1000 to 9770 nM

Task: Hello, I am looking for reported IC50 with MIF (Homo sapiens, UniProt P14174) for O=C(O)Cn1cnc2c(-n3nc(C(=O)O)c4ccccc43)nc(N3CCN(c4ccc(O)cc4)CC3)nc21 [Example 10] . Could you help?
Output: 10 to 97.7 nM

---

Study Target: MIF (Homo sapiens)
Experiment Summary: MIF tautomerase assay using pHPP as substrate
Type: biochemical
Conditions: inhibition of the MIF enzyme in vitro; mean of multiple test results; read-out: Tautomerase Inhibition pIC50 (converted)
Readout Label: IC50

Compound | Measurement
CC(CO)(CO)Nc1nc(N2CCN(c3ccc(O)cc3)CC2)nc2c1ncn2-c1ccncc1 | 100 to 977 nM
CN(C)Cc1cccc2c1cnn2-c1nc(N2CCN(c3ccc(O)cn3)CC2)nc2c1ncn2CC(=O)O | 100 to 977 nM
O=C1Cc2cccnc2N1c1nc(N2CCN(c3ccc(O)cc3)CC2)nc2c1ncn2CCO | 1000 to 9770 nM

Task: Need IC50 of `O=C(O)Cn1cnc2c(-n3ncc4ccccc43)nc(N3CCN(c4ccc(O)cn4)CC3)nc21` , thanks.
Output: 10 to 97.7 nM

Task: Need IC50 of `O=C(O)CCn1cnc2c(N3CCc4ccccc43)nc(N3CCN(c4ccc(O)cc4)CC3)nc21` , thanks.
Output: 100 to 977 nM

Task: Need IC50 of CC(C(=O)O)n1cnc2c(-n3cc4ccccc4n3)nc(N3CCN(c4ccc(O)cc4)CC3)nc21 (stereo not shown) , thanks.
Output: 100 to 977 nM

Task: Need IC50 of `Nc1nc(N2CCN(c3ccc(O)cc3)CC2)nc2c(-c3ccncc3)c[nH]c12` , thanks.
Output: > 10000 nM

Task: Need IC50 of `O=C(O)Cn1cnc2nc(N3CCN(c4ccc(O)cn4)CC3)nc(-n3ncc4ccccc43)c21` , thanks.
Output: 1000 to 9770 nM

Task: Need IC50 of `CCOC(=O)c1nn(-c2nc(N3CCN(c4ccc(O)cc4)CC3)nc3c2ncn3CC(=O)O)c2ccccc12` , thanks.
Output: 10 to 97.7 nM

Task: Need IC50 of `N#Cc1ccc(-n2cnc3c(N)nc(N4CCN(c5ccc(O)cc5)CC4)nc32)cc1` , thanks.
Output: 100 to 977 nM

---

Form field: IC50 (one value per entry).
Study Target: MIF (Homo sapiens, UniProt P14174)
Experiment Summary: MIF tautomerase assay using pHPP as substrate
Type: biochemical
Conditions: inhibition of the MIF enzyme in vitro; mean of multiple test results; read-out: Tautomerase Inhibition pIC50 (converted)

Task: Need IC50 of COc1ncccc1-n1cnc2c(N)nc(N3CCN(c4ccc(O)cc4)CC3)nc21 [Example 79] , thanks.
Output: > 10000 nM

Task: Need IC50 of N#Cc1nn(-c2nc(N3CCN(c4ccc(O)cc4)CC3)nc3c2ncn3CC(=O)O)c2ccccc12 [Example 134] , thanks.
Output: 10 to 97.7 nM

Task: Need IC50 of O=C(Cn1cnc2c(-n3ncc4ccccc43)nc(N3CCN(c4ccc(O)cc4)CC3)nc21)NS(=O)(=O)C1CC1 [Example 55] , thanks.
Output: 10 to 97.7 nM

Task: Need IC50 of CC(C(=O)O)n1cnc2nc(N3CCN(c4ccc(O)cc4)CC3)nc(-n3ncc4ccccc43)c21 (stereo not shown) [Example 125] , thanks.
Output: 100 to 977 nM

Task: Need IC50 of Cc1nc(N2CCN(c3ccc(O)cc3)CC2)nc2c1ncn2-c1cccnc1O [Example 60] , thanks.
Output: 100 to 977 nM

Task: Need IC50 of O=C(O)Cn1cnc2c(-c3ccnc4[nH]ccc34)nc(N3CCN(c4ccc(O)cc4)CC3)nc21 [Example 35] , thanks.
Output: 100 to 977 nM

Task: Need IC50 of O=C(O)Cn1cnc2c(-n3ncc4ccccc43)nc(N3CCC(O)(c4ccccc4)C3)nc21 (stereo not shown) [Example 161] , thanks.
Output: > 10000 nM

---

Form field: IC50 (one value per entry).
Study Target: MIF (Homo sapiens, UniProt P14174)
Experiment Summary: MIF tautomerase assay using pHPP as substrate
Assay type: biochemical
Conditions: inhibition of the MIF enzyme in vitro; mean of multiple test results; read-out: Tautomerase Inhibition pIC50 (converted)

Molecule | Readout Label | Measurement
Nc1nc(N2CCN(c3ccc(O)cc3)CC2)nc2c1ncn2Cc1ccccc1 | IC50 | 1000 to 9770 nM
CC(C(=O)O)n1cnc2c(-n3ncc4ccccc43)nc(N3CCN(c4ccc(O)cc4)CC3)nc21 (centres unmarked) | IC50 | 10 to 97.7 nM
Oc1ccc(N2CCN(c3nc(-n4ncc5ccccc54)c4ncn(Cc5nnn[nH]5)c4n3)CC2)cc1 | IC50 | 100 to 977 nM

Task: Need IC50 of `NCCn1cnc2c(-n3ncc4ccccc43)nc(N3CCN(c4ccc(O)cc4)CC3)nc21` , thanks.
Output: 1000 to 9770 nM

Task: Need IC50 of `CN(c1ccncc1)c1nc(N2CCC(O)(c3ccc(O)cc3)CC2)nc2[nH]cnc12` , thanks.
Output: > 10000 nM

---

Study Target: biotinylated human MIF / MIF receptor ectodomain (sCD74) (Homo sapiens)
Construct: made in house
Experiment Summary: MIF-CD74 binding assay
Conditions: FIGS. 9-12; read-out: pIC50 MIF-CD74 binding (converted)
Readout Label: IC50 (µM)

Mol | IC50, µM
O=C(O)CCn1cnc2c(-n3ncc4ccccc43)nc(N3CCN(c4ccc(O)cc4)CC3)nc21 | 4.9

I = Nc1nc(N2CCN(c3ccc(O)cc3)CC2)nc2c1ncn2-c1cccnc1
II = COc1ncccc1-n1cnc2c(C)nc(N3CCN(c4ccc(O)cc4)CC3)nc21
Task: // max by IC50 over [ I , II ] Lab note: record the label of whichever item you select.
Output: II
(II: 26.3 µM, I: 2.61 µM)
